system: four human prostate cancer cell lines: LNCaP, 22Rv1, VCaP, DU145; assay: Antiproliferative assay, overall effect in the four cell lines (geometric mean); format: cell-based; details: Homo sapiens, geometric mean of the four cell lines; read-out: Absolute IC50 Geo. mean
Below is a list of entries, each paired with its recorded IC50 value.
# output: bare number, implied unit µM

Look over these answered cases.
IC50 recorded for this molecule, O=C(Nc1cccc(S(F)(F)(F)(F)F)c1)c1ccc(Sc2ccc(O)cc2)cc1 [Compound 11f] , is 4.01

IC50 recorded for this molecule, O=C(Nc1cc(C(F)(F)F)ccc1C(F)(F)F)c1ccc(S(=O)(=O)c2ccc(O)cc2)cc1 [Compound 13d] , is 25.2

IC50 recorded for this molecule, O=C(Nc1ccccc1C(F)(F)F)c1ccc(S(=O)(=O)c2ccc(O)cc2)cc1 [Compound 13i] , is 49.1

IC50 recorded for this molecule, O=C(Nc1cc(C(F)(F)F)ccc1C(F)(F)F)c1ccc(Sc2ccc(O)cc2)cc1 [Compound 11d] , is 12.1

IC50 recorded for this molecule, O=C(Nc1cccc(S(F)(F)(F)(F)F)c1)c1ccc(S(=O)(=O)c2ccc(O)cc2)cc1 [Compound 13f] , is 6.18

IC50 recorded for this molecule, O=C(Nc1ccc(C(F)(F)F)cc1)c1ccc(Sc2ccc(O)cc2)cc1 [Compound 11g] , is 8.09

IC50 recorded for this molecule, N#Cc1ccc(NC(=O)c2ccc(Sc3ccc(O)cc3)cc2)cc1C(F)(F)F [Compound 11a] , is 7.08

IC50 recorded for this molecule, O=C(Nc1ccc([N+](=O)[O-])c(C(F)(F)F)c1)c1ccc(Sc2ccc(O)cc2)cc1 [Compound 11b] , is 4.68

IC50 recorded for this molecule, O=C(Nc1ccc(S(F)(F)(F)(F)F)cc1)c1ccc([S+]([O-])c2ccc(O)cc2)cc1 (stereo not shown) [Compound 14e] , is 3.75

IC50 recorded for this molecule, O=C(Nc1cc(C(F)(F)F)cc(C(F)(F)F)c1)c1ccc(S(=O)(=O)c2ccc(O)cc2)cc1 [Compound 13c] , is 8.5

More entries:
IC50 recorded for this molecule, C[C@](O)(CS(=O)(=O)c1ccc(F)cc1)C(=O)Nc1ccc(C#N)c(C(F)(F)F)c1 [Bicalutamide, bicalutamide, reference compound] , is 50

IC50 recorded for this molecule, N#Cc1ccc(NC(=O)c2ccc(Sc3cccc(C(F)(F)F)c3)cc2)cc1C(F)(F)F [Compound 12a] , is 5.5

IC50 recorded for this molecule, O=C(Nc1ccccc1C(F)(F)F)c1ccc(Sc2ccc(O)cc2)cc1 [Compound 11i] , is 25.2

IC50 recorded for this molecule, O=C(Nc1ccc(C(F)(F)F)cc1)c1ccc(S(=O)(=O)c2ccc(O)cc2)cc1 [Compound 13g] , is 19.7

IC50 recorded for this molecule, O=C(Nc1cc(C(F)(F)F)cc(C(F)(F)F)c1)c1ccc(Sc2ccc(O)cc2)cc1 [Compound 11c] , is 3.28

IC50 recorded for this molecule, O=C(Nc1ccc(S(F)(F)(F)(F)F)cc1)c1ccc(Sc2ccc(O)cc2)cc1 [Compound 11e] , is 5.43

----------
test system: four human prostate cancer cell lines: LNCaP, 22Rv1, VCaP, DU145; assay: Antiproliferative assay, overall effect in the four cell lines (geometric mean); assay type: cell-based; details: Homo sapiens, geometric mean of the four cell lines; read-out: Absolute IC50 Geo. mean
Outcome measure: pIC50
Please keep in mind that pIC50 is minus log10 of the molar concentration; only the number is needed.

Look over these answered cases.
pIC50 recorded for this compound, N#Cc1ccc(NC(=O)c2ccc(S(=O)(=O)c3cccc(C(F)(F)F)c3)cc2)cc1C(F)(F)F [Compound 15a] , is 5.33

pIC50 recorded for this compound, O=C(Nc1ccc(S(F)(F)(F)(F)F)cc1)c1ccc(S(=O)(=O)c2ccc(O)cc2)cc1 [Compound 13e] , is 5.27

More entries:
pIC50 recorded for this compound, N#Cc1ccc(NC(=O)c2ccc(S(=O)(=O)c3ccc(O)cc3)cc2)cc1C(F)(F)F [Compound 13a] , is 5.05
